target-under-test: BMX (human)
test-protocol: radiometric filter-binding kinase assay, Kinase HotSpot
experimental-parameters: compound 0.5 µM; ATP 10 µM

{"structure-smiles-string": "COc1ccc(Cl)cc1NC(=O)Nc1cc(C)nc2ccccc12", "residual activity, %": 101}
{"structure-smiles-string": "CC(C)(C)c1cc(C=C(C#N)C#N)cc(Br)c1O", "residual activity, %": 113}
{"structure-smiles-string": "O=C1Nc2ccc(Br)cc2/C1=C\\c1cc2c([nH]1)CCCC2", "residual activity, %": 89.9}
{"structure-smiles-string": "Ic1cccc(CSc2nnc(-c3ccncc3)o2)c1", "residual activity, %": 86.6}
{"structure-smiles-string": "c1ccc2c(-c3ccncc3)c[nH]c2c1", "residual activity, %": 95.8}
{"structure-smiles-string": "Cn1c2ccccc2c2c3c(c4c5ccccc5n(CCC#N)c4c21)CNC3=O", "residual activity, %": 13.7}

###

target-under-test: CSNK2A2 (human) (UniProt P19784)
Sequence (P19784 whole entry, looked up): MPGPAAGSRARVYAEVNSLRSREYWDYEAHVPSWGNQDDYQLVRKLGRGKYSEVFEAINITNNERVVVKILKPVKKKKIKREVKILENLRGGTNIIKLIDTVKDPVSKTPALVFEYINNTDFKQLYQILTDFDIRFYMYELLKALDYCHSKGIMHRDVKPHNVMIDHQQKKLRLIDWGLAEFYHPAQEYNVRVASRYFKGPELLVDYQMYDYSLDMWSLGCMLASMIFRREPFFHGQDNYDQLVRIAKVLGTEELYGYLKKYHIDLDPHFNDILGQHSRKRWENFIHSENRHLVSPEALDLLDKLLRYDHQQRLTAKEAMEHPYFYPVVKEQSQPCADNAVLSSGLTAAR
test-protocol: radiometric filter-binding kinase assay, Kinase HotSpot
experimental-parameters: compound 0.5 µM; ATP 10 µM
Lab note: compare residual activity with 90%, writing satisfied if less and not satisfied if equal or more.

{"structure-smiles-string": "Cc1cccc(-c2nc(C(C)(C)C)[nH]c2-c2ccc3c(c2)OCO3)n1", "class-label": "satisfied"}
{"structure-smiles-string": "Cc1cncc2cccc(S(=O)(=O)N3CCCN(C(=O)CN)C[C@H]3C)c12", "class-label": "not satisfied"}
{"structure-smiles-string": "O=C1NC(=O)c2c1c1c3ccccc3[nH]c1n1cncc21", "class-label": "satisfied"}
{"structure-smiles-string": "Cn1c2ccccc2c2c3c(c4c5ccccc5n(CCC#N)c4c21)CNC3=O", "class-label": "not satisfied"}
{"structure-smiles-string": "Ic1cccc(CSc2nnc(-c3ccncc3)o2)c1", "class-label": "satisfied"}
{"structure-smiles-string": "CC(C)(C)c1cc(C=C(C#N)C#N)cc(Br)c1O", "class-label": "not satisfied"}
{"structure-smiles-string": "COc1ccc(S(=O)(=O)N(CCO)c2ccccc2CN(C)C/C=C/c2ccc(Cl)cc2)cc1", "class-label": "not satisfied"}
{"structure-smiles-string": "O=C1c2ccccc2-c2nc3nnnn3nc21", "class-label": "satisfied"}
{"structure-smiles-string": "COc1ccc(Cl)cc1NC(=O)Nc1cc(C)nc2ccccc12", "class-label": "not satisfied"}
{"structure-smiles-string": "COc1cc(Nc2c(C#N)cnc3cc(OCCCN4CCN(C)CC4)c(OC)cc23)c(Cl)cc1Cl", "class-label": "not satisfied"}
{"structure-smiles-string": "COc1cc2ncnc(Nc3ccc(OCc4ccccc4)cc3)c2cc1OC", "class-label": "not satisfied"}
{"structure-smiles-string": "NC(=O)c1cccc(-c2cc(Nc3ccc(OC(F)(F)F)cc3)ncn2)c1", "class-label": "not satisfied"}
{"structure-smiles-string": "CS(=O)(=O)CCNCc1ccc(-c2ccc3ncnc(Nc4ccc(OCc5cccc(F)c5)c(Cl)c4)c3c2)o1", "class-label": "not satisfied"}
{"structure-smiles-string": "c1ccc2c(-c3ccncc3)c[nH]c2c1", "class-label": "not satisfied"}
{"structure-smiles-string": "C[C@@H]1CCN(C(=O)CC#N)C[C@@H]1N(C)c1ncnc2[nH]ccc12", "class-label": "not satisfied"}
{"structure-smiles-string": "N#Cc1c[nH]c2c[nH]/c(=N\\Cc3cccnc3)cc2/c1=N\\c1ccc(F)c(Cl)c1", "class-label": "satisfied"}
{"structure-smiles-string": "COc1ccc2c(c1)/C(=C/c1cnc[nH]1)C(O)=N2", "class-label": "satisfied"}
{"structure-smiles-string": "COc1cc2ncnc(Nc3ccc(Oc4ccccc4)cc3)c2cc1OC", "class-label": "not satisfied"}
